- Tested on: Plutella xylostella (diamondback moth)
- EXPERIMENTAL_PROTOCOL: Example B10: Plutella xylostella (diamondback moth), 96-well artificial diet
- Format: in vivo
- CONDITION_PARAMETERS: 216 h, application rate of 500 ppm, 9 days after infestation, eggs/L1 larvae

{"columns": ["COMPOUND", "mortality at 500 ppm"],
 "data": [
  ["CC(NC(=O)c1cc(OC(F)F)cc(C(F)(F)F)c1)c1nccnc1-c1ncc(OC(F)F)cn1 (stereo not shown)", "≥ 80%"],
  ["CC(NC(=O)c1cc(OCC(F)F)cc(C(F)(F)F)c1)c1nccnc1-c1ncc(OC(F)F)cn1 (stereo not shown)", "≥ 80%"],
  ["C[C@H](NC(=O)c1cc(C(F)(F)F)cc(C(F)(F)F)c1)c1nccnc1-c1ccc(OC(F)F)cn1", "≥ 80%"],
  ["CC(NC(=O)c1cc(OCC(F)(F)F)cc(C(F)(F)F)c1)c1nccnc1-c1ncc(OC(F)F)cn1 (stereo not shown)", "≥ 80%"],
  ["CC(NC(=O)c1cc(Cl)cc(C(F)(F)F)c1)c1nccnc1-c1ccc(OCC(F)F)cn1 (stereo not shown)", "≥ 80%"],
  ["CC(NC(=O)c1cc(SC(F)(F)F)cc(C(F)(F)F)c1)c1nccnc1-c1ncc(OCC(F)F)cn1 (stereo not shown)", "≥ 80%"],
  ["CC(NC(=O)c1cc(Br)cc(C(F)(F)F)c1)c1nccnc1-c1ccc(OCC(F)F)cn1 (stereo not shown)", "≥ 80%"]
]}
